Hello, the source for this data is patent US20050042213A1, in case you need it.

Entries annotated with measured pIC50
Molecular target: pro-heparanase (H60) (Homo sapiens, UniProt Q9Y251, K307R)
Sequence (Q9Y251 36-543 K307R): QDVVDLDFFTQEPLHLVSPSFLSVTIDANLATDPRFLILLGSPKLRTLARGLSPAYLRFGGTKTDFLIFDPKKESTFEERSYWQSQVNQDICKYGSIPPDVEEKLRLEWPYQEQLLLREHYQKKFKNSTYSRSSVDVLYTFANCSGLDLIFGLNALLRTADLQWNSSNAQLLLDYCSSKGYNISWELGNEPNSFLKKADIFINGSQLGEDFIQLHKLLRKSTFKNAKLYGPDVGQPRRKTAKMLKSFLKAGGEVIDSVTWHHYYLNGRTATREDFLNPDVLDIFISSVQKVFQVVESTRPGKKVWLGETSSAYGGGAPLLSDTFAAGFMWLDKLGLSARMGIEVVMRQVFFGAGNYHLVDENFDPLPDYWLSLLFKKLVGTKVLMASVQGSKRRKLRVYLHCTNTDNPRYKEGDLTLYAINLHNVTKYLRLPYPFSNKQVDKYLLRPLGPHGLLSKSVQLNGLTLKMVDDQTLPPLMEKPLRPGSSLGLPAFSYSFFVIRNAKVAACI
Test: Pro-heparanase activation in a cell-based assay (293 cells, DMB assay)
Settings: inhibition of pro-heparanase activation; Table 7, 5-(5-Phenyl-furan-2-ylmethylene)rhodanine analogs
In plain terms, pIC50 is the concentration in mol/L turned into minus its base-10 logarithm.

These recorded examples may help you get a feel for the data.
INSERT INTO assay_data (smiles, outcome_measure, readout_number) VALUES
  ('O=C(O)CCN1C(=O)C(=Cc2ccc(-c3ccc(Cl)cc3Cl)o2)SC1=S', 'pIC50', 5.52),
  ('O=C1NC(=S)SC1=Cc1ccc(-c2ccc(Br)cc2)o1', 'pIC50', 4.89);

## Task Quick check: pIC50 of O=C(O)CCN1C(=O)C(=Cc2ccc(-c3ccccc3[N+](=O)[O-])o2)SC1=S ?
## Result 4.52

## Task Quick check: pIC50 of O=C(O)CCCCCN1C(=O)C(=Cc2ccc(-c3ccc(Cl)cc3)o2)SC1=S ?
## Result 6.28

## Task Quick check: pIC50 of Cc1cc([N+](=O)[O-])ccc1-c1ccc(C=C2SC(=S)N(CC(=O)O)C2=O)o1 ?
## Result 4.68

## Task Quick check: pIC50 of O=C1C(=Cc2ccc(-c3ccc([N+](=O)[O-])cc3Cl)o2)SC(=S)N1c1ccccc1 ?
## Result 3.60

## Task Quick check: pIC50 of O=C(O)c1cccc(-c2ccc(C=C3SC(=S)N(c4ccccc4)C3=O)o2)c1 ?
## Result 5.30
